# target.or.test.system: Human galectin-1 (Homo sapiens, UniProt P09382)
# Construct: made in house
# Sequence (P09382 whole entry): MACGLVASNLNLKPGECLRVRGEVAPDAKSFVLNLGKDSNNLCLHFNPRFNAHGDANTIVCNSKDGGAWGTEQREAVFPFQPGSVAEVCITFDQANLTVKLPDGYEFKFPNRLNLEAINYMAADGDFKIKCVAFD
# experimental.protocol: competitive fluorescence polarization assay, galectin-1
# Assay type: binding
# particulars: ratio of galectin-3 KD to galectin-1 KD
attribute.measured: Selectivity Galectin-1/3
One number for each entry.

Reference set (2 entries):
>  <compound>
OC[C@H]1O[C@H](Cn2cc(-c3ccccc3F)nn2)[C@H](O)[C@@H](O)[C@H]1O [1d]

>  <target.or.test.system>
Human galectin-1 (Homo sapiens, UniProt P09382)

>  <Selectivity Galectin-1/3>
1.3

$$$$
>  <compound>
OC[C@H]1O[C@H](Cn2cc(-c3ccc(F)c(F)c3)nn2)[C@H](O)[C@@H](O)[C@H]1O [1e]

>  <target.or.test.system>
Human galectin-1 (Homo sapiens, UniProt P09382)

>  <Selectivity Galectin-1/3>
0.7

$$$$

Quick one: Selectivity Galectin-1/3 for OC[C@H]1O[C@H](Cn2cc(-c3ccc4ccccc4c3)nn2)[C@H](O)[C@@H](O)[C@H]1O [1n] ? 1.1
